# target: UniProt:P41145
# Sequence (P41145 whole entry): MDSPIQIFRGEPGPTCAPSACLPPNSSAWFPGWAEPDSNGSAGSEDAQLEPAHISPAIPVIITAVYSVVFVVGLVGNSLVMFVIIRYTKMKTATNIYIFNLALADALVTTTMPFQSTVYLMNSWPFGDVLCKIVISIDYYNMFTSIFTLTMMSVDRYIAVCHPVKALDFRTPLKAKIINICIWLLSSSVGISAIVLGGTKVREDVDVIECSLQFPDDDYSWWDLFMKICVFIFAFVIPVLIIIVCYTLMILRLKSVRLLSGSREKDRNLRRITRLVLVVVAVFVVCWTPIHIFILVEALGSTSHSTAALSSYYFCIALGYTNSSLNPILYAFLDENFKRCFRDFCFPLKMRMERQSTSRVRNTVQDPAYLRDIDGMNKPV
# assay: Agonist activity at human KOPR expressed in CHO cells assessed as enhancement of [35S]GTPgammaS binding at 10 uM relative to U50488
# Format: functional, cell-based
Examples of molecules with documented Emax follow.
Return type: number; implicit unit %.

Example cases with answers are listed next.
{"smilesInput": "COC(=O)[C@@H]1C[C@H](OC(C)=O)C(=O)[C@H]2[C@@]1(C)CC[C@H]1C(=O)O[C@H]([C@H](O)c3ccco3)C[C@]21C", "dataValue": 111}
{"smilesInput": "COC(=O)[C@@H]1C[C@]2(C)[C@H]3C(=O)[C@@H](OC(C)=O)C[C@@H](C(=O)OC)[C@]3(C)CC[C@H]2C(=O)O1", "dataValue": 99}
{"smilesInput": "C=Cc1occc1[C@@H]1C[C@]2(C)[C@H]3C(=O)[C@@H](OC(C)=O)C[C@@H](C(=O)OC)[C@]3(C)CC[C@H]2C(=O)O1", "dataValue": 120}
{"smilesInput": "CCOC(=O)[C@@H]1C[C@]2(C)[C@H]3C(=O)[C@@H](OC(C)=O)C[C@@H](C(=O)OC)[C@]3(C)CC[C@H]2C(=O)O1", "dataValue": 94}
{"smilesInput": "COC(=O)[C@@H]1C[C@H](OC(C)=O)C(=O)[C@H]2[C@@]1(C)CC[C@H]1C(=O)O[C@H](C(=O)O)C[C@]21C", "dataValue": 99}
{"smilesInput": "COC(=O)[C@@H]1C[C@H](OC(C)=O)C(=O)[C@H]2[C@@]1(C)CC[C@H]1C(=O)O[C@H](C(=O)c3cccs3)C[C@]21C", "dataValue": 103}

stdin: What measured Emax is associated with COC[C@@H]1C[C@]2(C)[C@H]3C(=O)[C@@H](OC(C)=O)C[C@@H](C(=O)OC)[C@]3(C)CC[C@H]2C(=O)O1 on UniProt:P41145?
stdout: 98

stdin: And what about the molecule COC(=O)[C@@H]1C[C@H](OC(C)=O)C(=O)[C@H]2[C@@]1(C)CC[C@H]1C(=O)O[C@H](COC(C)=O)C[C@]21C ?
stdout: 113

stdin: And what about the molecule COC(=O)[C@@H]1C[C@H](OC(C)=O)C(=O)[C@H]2[C@@]1(C)CC[C@H]1C(=O)O[C@H](C(=O)OC(C)C)C[C@]21C ?
stdout: 94

stdin: And what about the molecule COC(=O)[C@@H]1C[C@H](OC(C)=O)C(=O)[C@H]2[C@@]1(C)CC[C@H]1C(=O)O[C@H](C(=O)c3cnccn3)C[C@]21C ?
stdout: 103

Provenance of the data: ChEMBL document CHEMBL1143388
